- Tested on: P388 leukemia ip, CD2F1 mice, survival T/C
- ASSAY_PROCEDURE: NCI In Vivo Anticancer Drug Screen. Data for tumor model P388 Leukemia (intraperitoneal) in CD2F1 (CDF1) mice
- EXPERIMENTAL_CONTEXT: endpoint: median survival time; dose: 6.25 mg/kg/injection; schedule: Q01DX005 (ip); vehicle: Klucel (hydroxypropylcellulose) (HPC); higher = longer survival
Inconclusive results and toxic doses are left out.
ATTRIBUTE_MEASURED: T/C

Please report the recorded T/C for COP(=O)(CS(=O)(=O)Oc1ccc(S(C)(=O)=O)cc1)OC .
100 % of control

And what about the compound Cc1cc2c(cc1C)Nc1oc3ccc4ccccc4c3c(=O)c1C=N2 ?
104 % of control

Another compound to look at: O.O.[Cu+2].[Cu+2].[NH-]CCC(=O)[N-]C(Cc1cnc[nH]1)C(=O)O.[NH-]CCC(=O)[N-]C(Cc1cnc[nH]1)C(=O)O (centres undefined)
98 % of control

Now the compound Nc1nc(Cl)c2nnn(C3CC(O)C(CO)C3)c2n1 (centres undefined)
116 % of control
